Target: Serine/threonine-protein kinase B-raf (Homo sapiens, UniProt P15056, V600E)
Sequence (P15056 2-766 V600E limits assumed): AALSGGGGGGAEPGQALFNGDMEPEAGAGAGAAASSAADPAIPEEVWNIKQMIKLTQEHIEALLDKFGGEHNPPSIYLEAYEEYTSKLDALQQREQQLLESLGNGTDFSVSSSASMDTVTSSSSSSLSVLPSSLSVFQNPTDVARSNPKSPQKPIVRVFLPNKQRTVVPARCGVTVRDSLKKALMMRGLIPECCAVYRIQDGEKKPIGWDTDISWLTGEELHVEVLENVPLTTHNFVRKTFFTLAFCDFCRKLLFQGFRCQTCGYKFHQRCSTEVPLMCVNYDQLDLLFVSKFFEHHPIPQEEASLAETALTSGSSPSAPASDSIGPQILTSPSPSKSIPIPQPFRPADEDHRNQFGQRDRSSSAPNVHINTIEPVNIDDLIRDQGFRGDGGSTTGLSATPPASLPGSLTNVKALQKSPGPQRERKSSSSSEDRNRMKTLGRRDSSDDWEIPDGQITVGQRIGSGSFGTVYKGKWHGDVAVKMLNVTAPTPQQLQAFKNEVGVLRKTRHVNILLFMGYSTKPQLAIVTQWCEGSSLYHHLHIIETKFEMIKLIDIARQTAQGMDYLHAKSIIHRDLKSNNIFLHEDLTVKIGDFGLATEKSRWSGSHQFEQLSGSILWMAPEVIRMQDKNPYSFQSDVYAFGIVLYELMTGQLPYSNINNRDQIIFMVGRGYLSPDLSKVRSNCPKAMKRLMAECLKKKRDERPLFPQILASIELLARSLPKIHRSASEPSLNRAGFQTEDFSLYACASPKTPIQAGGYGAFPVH
Assay: Inhibition of human BRAF V600E mutant using MEK1 as substrate by […]-ATP assay
PROPERTY_NAME: pIC50
// scale note: pIC50 = -log10(conc_M); give the bare number

[Q] Which measured pIC50 belongs to COc1ccc(-c2nn(-c3cccc(NC(=O)c4cccc(C(F)(F)F)c4)c3)cc2-c2ccncc2)cc1Cl , tested on Serine/threonine-protein kinase B-raf (Homo sapiens, UniProt P15056, V600E)?
[A] 6.80

* * *

Target: Mitogen-activated protein kinase 14 (Homo sapiens, UniProt Q16539)
Sequence (Q16539 whole entry): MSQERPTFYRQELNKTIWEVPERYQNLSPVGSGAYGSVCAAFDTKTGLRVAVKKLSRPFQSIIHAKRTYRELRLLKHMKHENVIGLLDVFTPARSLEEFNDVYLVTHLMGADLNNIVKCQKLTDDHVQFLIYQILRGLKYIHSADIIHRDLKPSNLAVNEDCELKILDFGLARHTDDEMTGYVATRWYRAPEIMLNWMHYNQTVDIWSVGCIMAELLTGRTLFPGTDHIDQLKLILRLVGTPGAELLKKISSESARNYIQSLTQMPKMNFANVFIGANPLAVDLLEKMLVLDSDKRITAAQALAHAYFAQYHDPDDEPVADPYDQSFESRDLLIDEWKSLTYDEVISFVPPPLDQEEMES
Experiment: Inhibition of human p38alpha using MBP as substrate by [gamma-33P]-ATP assay
PROPERTY_NAME: IC50 (µM)
Answer with a number only, understood to be in µM.

[Q] Query (molecule): O=C(Nc1cccc(-n2cc(-c3ccncc3)c(-c3ccc(O)c(Cl)c3)n2)c1)Nc1ccc(Cl)c(Cl)c1 ; field requested: IC50
[A] 14.4

[Q] Query (molecule): O=C(Nc1cccc(-n2cc(-c3ccncc3)c(-c3ccc(O)c(Cl)c3)n2)c1)c1ccc(Cl)c(Cl)c1 ; field requested: IC50
[A] 14.3

[Q] Query (molecule): COc1ccc(-c2nn(-c3cccc(NC(=O)Nc4cc(C(F)(F)F)cc(C(F)(F)F)c4)c3)cc2-c2ccncc2)cc1Cl ; field requested: IC50
[A] 0.307
